Reported growth inhibition values for the following molecules.
Assay: NCI Yeast Anticancer Drug Screen. Data for the mec2-1 strain (AID 157)
Details: S. cerevisiae mec2-1 strain, at 50.0 µM, hits give high values
Experimental: Growth inhibition of yeast strains with defined genetic alterations is measured as a screen for potential anti-cancer activity. Selected strains with alterations in DNA damage repair or cell cycle control were exposed to compounds and growth inhibition was measured relative to vehicle treated controls. The strain used in this assay is mec2-1
About 79,000 compounds went through this panel and 15% of them were active in at least one assay; those are over-represented in the sample as a whole. Calls of active or inactive are those of the source. Cut-off read from the data, not from the text of the source: active = growth inhibition above about 70%; inactive = the rest.

CCOP(=S)(N/N=C/c1ccc(C)s1)OCC	-27.2% (inactive)
COCC1OC(OC2C3=C(C(C)C)CCC3(C)/C=C3\C(CCC3(O)COC)C(C)C2O)C(O)C2OC3OC12OC3(C)C1CO1 (stereo unspecified)	7.75% (inactive)
CN(C)C(=S)[S][Hg][c]1ccccc1	93.4% (active)
CN(C)NP(c1ccccc1)c1ccccc1	-3.8% (inactive)

Inquiry: Find the measured growth inhibition of CC[C@@]1(O)C(=O)OCc2c1cc1n(c2=O)Cc2cc3c(OC)cccc3nc2-1 and report it.
Reply text: 89.4% (active)

Inquiry: Query growth inhibition for CCN(CC)P1(=O)OP(=O)(N(CC)CC)OP(=O)(N(CC)CC)O1 (stereo unspecified)
Reply text: 7% (inactive)

Inquiry: Please supply the value of reported growth inhibition for the item O=[N+]([O-])c1ccc(/C=N\NP(Br)(c2ccccc2)(c2ccccc2)c2ccccc2)cc1
Reply text: 0.3% (inactive)

Inquiry: In one line, give reported growth inhibition of the entry O=P(O)(O)c1ccccc1 (tested in a mixture with another compound) .
Reply text: -6.45% (inactive)

Inquiry: For the molecule O=C(CF)[O][Sb]([O]C(=O)CF)([c]1ccccc1)([c]1ccccc1)[c]1ccccc1 , give its measured growth inhibition value.
Reply text: 19.9% (inactive)

Inquiry: Quote growth inhibition reported for CC1(C(=O)O)CCCC2(C)c3cc(O)ccc3CCC12 (stereo unspecified) please.
Reply text: 13% (inactive)

Inquiry: For COc1cc(Cl)c(OP(=O)(OC)OC)cc1Cl , write its growth inhibition.
Reply text: 9.4% (inactive)

====

Reported growth inhibition is given for each of the following compounds.
experiment: NCI Yeast Anticancer Drug Screen. Data for the rad50 strain (AID 155);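 note: 0% = growth of vehicle-only cultures of the same strain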; details: S. cerevisiae rad50 strain growth inhibition; at 50.0 µM; hits give high values
The panel holds about 79,000 compounds, 15% with a hit somewhere; the sample as a whole holds those more often.
Just the number please, in %, no unit attached.

Examples from the recorded data:
CC1(C)N=C(N)N=C(N)N1c1ccc(Cl)c(CCCCc2ccc(S(=O)(=O)F)cc2)c1	99.8
ICCCI	0.6
N#CC(C#N)=Cc1ccco1	-7.95
CCOC(=O)c1ccc(N=Cc2ccc(N(CCCl)CCCl)cc2C)cc1	49.5
N.N.N.N.[Co+3].[O-][Cl+3]([O-])([O-])[O-].[OH3+].[OH3+]	-25.4
O=N[O-].O=N[O-].[Co].[NH2-].[NH2-].[NH2-].[NH2-]	0.1

Inquiry: Note growth inhibition for the compound shown: N=C(N)SCc1ccc(Cl)c(Cl)c1 (tested in a mixture with another compound)
Reply text: 13.6

Inquiry: Provide measured growth inhibition value, entry: Cc1cc(N(CCCl)CCCl)ccc1CN1CCCN(Cc2ccc(N(CCCl)CCCl)cc2C)C1c1cc(O)cc(Br)c1
Reply text: 43

Inquiry: Note growth inhibition for the compound shown: Cc1cc(S(=O)(=O)[O-])ccc1-n1nc(C)[c-](N=Nc2cc(S(=O)(=O)[O-])ccc2C(=O)[O-])c1=O.[Cr+3].[Na+].[OH-] (stereo not drawn)
Reply text: -19.4

Inquiry: Name the recorded growth inhibition of the item CP1(=O)CCC23CCCCC21O3 (stereo not drawn) in your answer.
Reply text: 7.9

Inquiry: Check the records and state growth inhibition for c1cs[c]([Hg][c]2cccs2)c1
Reply text: 99.7

Inquiry: Give the reported growth inhibition for this compound. O=C(O)COc1ccc(Cl)cc1Cl (tested in a mixture with another compound)
Reply text: -0.5

Inquiry: Tell us which growth inhibition value is on record for C1=C[N-]c2c3c(ccc2=C1)=CC=C[N-]3.C1=C[N-]c2c3c(ccc2=C1)=CC=C[N-]3.F[P-](F)(F)(F)(F)F.[Cu+2]
Reply text: 99.3
